Where these numbers come from: PubChem BioAssay (Tox21)

- Protocol Summary: qHTS assay to identify small molecule antagonists of the estrogen related receptor (ERR) signaling pathway from Tox21 library - cell viability counter screen (AID 1224834); also: nearly all actives have a fitted effect of over 30% in size
- Condition Set: ERR reporter cells viability, CellTiter-Fluor, 17.5 h; series mostly up to 92.4 µM
Results filed as inconclusive are left out. Calls of active or inactive are those of the source. Calls follow the shape of the dose curve; as a rule, active = well fitted cell-killing curve with a large enough effect in the repeat runs; inconclusive = weak or mixed curves; inactive = flat fitted curve, though single readings scatter.
Observed Property: viability change, negative = cytotoxic

| Molecule | viability change, negative = cytotoxic |
| --- | --- |
| c1ccc(CCNc2nc(-c3ccccc3)cs2)cc1 | inactive |
| Cc1nc2sccn2c(=O)c1CCN1CCC(=C(c2ccc(F)cc2)c2ccc(F)cc2)CC1 | inactive |
| N#C[C@@H]1CC(F)(F)CN1C(=O)CNC1CC2CCC(C1)N2c1ncccn1 (stereo partly specified) | inactive |
| CC(C)(O)C(=O)O | inactive |
| CCC1=C(C)CN(C(=O)NCCc2ccc(S(=O)(=O)NC(=O)NC3CCC(C)CC3)cc2)C1=O (stereo unspecified) | inactive |

Moving on to another molecule below.
Query string: Please look up its viability change, negative = cytotoxic: CCCCCCCCC(=O)OCC(C)OC(=O)CCCCCCCC (stereo unspecified)
Result string: inactive
